Test system: HCV replicon 1AY93H
assay-name: microbe, parasite or virus in culture
Type: cell-based, Hepatitis C virus (HCV)
particulars: read-out: 1A Y93H IC50; replicon 1AY93H; Replicon Assay A
Catalogue of compounds with associated IC50
measurement-label: IC50 (pM)

>  <compound>
COC(=O)N[C@H](C(=O)N1CCC[C@@H]1c1ncc(-c2cc(F)c3c(c2)OC(c2ccc(C(C)C)s2)n2c-3cc3cc(-c4c[nH]c([C@@H]5CCCN5C(=O)[C@H](NC(=O)OC)C5C[C@@H](C)O[C@@H](C)C5)n4)ccc32)[nH]1)C(C)C (stereo partly shown) [Compound 240]

>  <experimental-value>
5

$$$$
>  <compound>
COC(=O)NC(C(=O)N1CCC[C@H]1c1ncc(-c2ccc3c(c2)cc2n3C(c3ccc(C4CC4)s3)Oc3cc(-c4cnc([C@@H]5CCCN5C(=O)[C@@H](NC(=O)OC)C(C)C)[nH]4)cc(F)c3-2)[nH]1)C1C[C@@H](C)O[C@H](C)C1 (single isomer, unassigned) [Compound 191]

>  <experimental-value>
320

$$$$
>  <compound>
CCc1ccc(C2Oc3cc(-c4cnc([C@@H]5CCCN5C(=O)C(NC(=O)OC)C5CCOC(C)(C)C5)[nH]4)cc(F)c3-c3cc4cc(-c5cnc([C@@H]6CCCN6C(=O)C(NC(=O)OC)C6CCOC(C)(C)C6)[nH]5)ccc4n32)s1 (single isomer, unassigned) [Compound 296]

>  <experimental-value>
2

$$$$
>  <compound>
COC(=O)N[C@H](C(=O)N1CCC[C@H]1c1ncc(-c2cc(F)c3c(c2)OC(c2ccc(C4CC4)s2)n2c-3cc3cc(-c4cnc([C@@H]5CCCN5C(=O)[C@@H](NC(=O)OC)C5CCOCC5)[nH]4)ccc32)[nH]1)C1CCOCC1 (single isomer, unassigned) [Compound 280]

>  <experimental-value>
3

$$$$

* * *

Test system: HCV replicon 1A
assay-name: microbe, parasite or virus in culture
Assay type: cell-based, Hepatitis C virus (HCV)
particulars: HCV replicon 1A; Replicon Assay A
pIC50: −log10 of the molar value.
Catalogue of compounds with associated pIC50

>  <compound>
COC(=O)N[C@H](C(=O)N1CCC[C@H]1c1ncc(-c2cc(F)c3c(c2)OC(c2cc4c(s2)CCCO4)n2c-3cc3cc(-c4cnc([C@@H]5CCCN5C(=O)[C@@H](NC(=O)OC)C5CCOC(C)(C)C5)[nH]4)ccc32)[nH]1)C(C)C (single isomer, unassigned) [Compound 411]

>  <system-tested>
HCV replicon 1A

>  <pIC50>
12.00

$$$$
>  <compound>
COC(=O)N[C@H](C(=O)N1CCC[C@H]1c1ncc(-c2cc(C)c3c(c2)OC(c2cc4c(s2)CCC4)n2c-3cc3cc(-c4cnc([C@@H]5CCCN5C(=O)[C@@H](NC(=O)OC)C5C[C@@H](C)O[C@@H](C)C5)[nH]4)ccc32)[nH]1)C(C)C (single isomer, unassigned) [Compound 548]

>  <system-tested>
HCV replicon 1A

>  <pIC50>
11.12

$$$$
>  <compound>
CCc1ccc(C2Oc3cc(-c4cnc([C@@H]5CCCN5C(=O)[C@@H](NC(=O)OC)C(C)C)[nH]4)ccc3-c3c(F)c4cc(-c5cnc([C@@H]6CCCN6C(=O)[C@@H](NC(=O)OC)C(C)C)[nH]5)ccc4n32)s1 (single isomer, unassigned) [Compound 602]

>  <system-tested>
HCV replicon 1A

>  <pIC50>
12.00

$$$$
>  <compound>
COC(=O)N[C@H](C(=O)N1C2CC2C[C@H]1c1ncc(-c2cc(F)c3c(c2)OC(c2ccc(C4CC4)s2)n2c-3cc3cc(-c4cnc([C@@H]5CCCN5C(=O)[C@@H](NC(=O)OC)C5C[C@@H](C)O[C@@H](C)C5)[nH]4)ccc32)[nH]1)C(C)C (single isomer, unassigned) [Compound 555]

>  <system-tested>
HCV replicon 1A

>  <pIC50>
11.62

$$$$

* * *

Tested on: HCV replicon 1AY93H
assay-name: microbe, parasite or virus in culture
Assay type: cell-based, Hepatitis C virus (HCV)
particulars: read-out: 1A Y93H IC50; replicon 1AY93H; Replicon Assay A

>  <compound>
COC(=O)NC(C(=O)N1CCC[C@H]1c1ncc(-c2cc(F)c3c(c2)OC(c2ccc(C4CC4)s2)n2c-3cc3cc(-c4cnc([C@@H]5CCCN5C(=O)[C@@H](NC(=O)OC)C(C)C)[nH]4)ccc32)[nH]1)C1CCOC(C)(C)C1 (single isomer, unassigned) [Compound 211]

>  <IC50 [pM]>
220

$$$$
>  <compound>
CCc1ccc(C2Oc3cc(-c4cnc([C@@H]5CCCN5C(=O)[C@@H](NC(=O)OC)C(C)C)[nH]4)cc(F)c3-c3cc4cc(-c5cnc([C@@H]6C[C@H]7C[C@H]7N6C(=O)C(NC(=O)OC)C6CCOC(C)(C)C6)[nH]5)ccc4n32)s1 (single isomer, unassigned) [Compound 201]

>  <IC50 [pM]>
2

$$$$

* * *

System: HCV replicon 2B
assay-name: microbe, parasite or virus in culture
Assay type: cell-based, Hepatitis C virus (HCV)
particulars: read-out: 2B IC50; HCV replicon 2B; Replicon Assay A

>  <compound>
COC(=O)N[C@H](C(=O)N1CCC[C@H]1c1nc(-c2cc(F)c3c(c2)OC(c2ccc(C4CC4)s2)n2c-3cc3cc(-c4c[nH]c([C@@H]5C[C@H]6C[C@H]6N5C(=O)[C@@H](NC(=O)OC)C(C)C)n4)ccc32)c[nH]1)C(C)C (single isomer, unassigned) [Compound 719]

>  <IC50>
0.036 nM

$$$$
>  <compound>
COC(=O)NC(C(=O)N1[C@@H]2C[C@@H]2C[C@H]1c1ncc(-c2ccc3c(c2)cc2n3C(c3cc4ccccc4s3)Oc3cc(-c4cnc([C@@H]5CCCN5C(=O)[C@@H](NC(=O)OC)C(C)C)[nH]4)cc(F)c3-2)[nH]1)C1C[C@@H](C)O[C@@H](C)C1 (single isomer, unassigned) [Compound 647]

>  <IC50>
0.153 nM

$$$$

* * *

Test system: HCV replicon 1AY93H
assay-name: microbe, parasite or virus in culture
Format: cell-based, Hepatitis C virus (HCV)
particulars: read-out: 1A Y93H IC50; replicon 1AY93H; Replicon Assay A
pIC50: −log10 of the molar value.
measurement-label: pIC50

>  <compound>
CCc1ccc(C2Oc3cc(-c4cnc([C@@H]5CCCN5C(=O)C(NC(=O)OC)C5C[C@@H](C)O[C@@H](C)C5)[nH]4)cc(F)c3-c3cc4cc(-c5cnc([C@@H]6CCCN6C(=O)C(NC(=O)OC)C6C[C@@H](C)O[C@@H](C)C6)[nH]5)ccc4n32)s1 (single isomer, unassigned) [Compound 299]

>  <experimental-value>
9.57

$$$$
>  <compound>
COC(=O)NC(C(=O)N1CCC[C@H]1c1ncc(-c2cc(F)c3c(c2)OC(c2ccc(C4CC4)s2)n2c-3cc3cc(-c4cnc([C@@H]5CCCN5C(=O)C(NC(=O)OC)C(C)(C)F)[nH]4)ccc32)[nH]1)C(C)(C)F (single isomer, unassigned) [Compound 111]

>  <experimental-value>
10.13

$$$$
>  <compound>
COC(=O)NC(C(=O)N1CCC[C@H]1c1ncc(-c2ccc3c(c2)cc2n3C(c3ccc(C4CC4)s3)Oc3cc(-c4cnc([C@@H]5CCCN5C(=O)[C@@H](NC(=O)OC)C(C)C)[nH]4)cc(F)c3-2)[nH]1)C1C[C@@H](C)O[C@H](C)C1 (single isomer, unassigned) [Compound 192]

>  <experimental-value>
10.55

$$$$
>  <compound>
COC(=O)N[C@H](C(=O)N1CCC[C@H]1c1ncc(-c2ccc3c(c2)OC(c2ccc(C4CC4)s2)n2c-3cc3cc(-c4cnc([C@@H]5CCCN5C(=O)[C@@H](NC(=O)OC)C5CCOCC5)[nH]4)ccc32)[nH]1)C(C)C (single isomer, unassigned) [Compound 335]

>  <experimental-value>
11.28

$$$$
>  <compound>
COC(=O)NC(C(=O)N1CCC[C@H]1c1ncc(-c2ccc3c(c2)cc2n3C(c3ccc(C4CC4)s3)Oc3cc(-c4cnc([C@@H]5CCCN5C(=O)[C@@H](NC(=O)OC)C(C)C)[nH]4)cc(F)c3-2)[nH]1)C1CN(C(=O)OC)C1 (single isomer, unassigned) [Compound 226]

>  <experimental-value>
11.05

$$$$
>  <compound>
CCc1ccc(C2Oc3cc(-c4cnc([C@@H]5CCCN5C(=O)C(NC(=O)OC)C5C[C@@H](C)O[C@@H](C)C5)[nH]4)cc(F)c3-c3cc4cc(-c5cnc([C@@H]6CCCN6C(=O)[C@@H](NC(=O)OC)C(C)C)[nH]5)ccc4n32)s1 (single isomer, unassigned) [Compound 156]

>  <experimental-value>
11.30

$$$$
>  <compound>
COC(=O)NC(C(=O)N1CCC[C@H]1c1ncc(-c2ccc3c(c2)cc2n3C(c3ccc(C4CC4)s3)Oc3cc(-c4cnc([C@@H]5CCCN5C(=O)[C@@H](NC(=O)OC)C(C)C)[nH]4)cc(F)c3-2)[nH]1)C(C)(C)F (single isomer, unassigned) [Compound 77]

>  <experimental-value>
9.62

$$$$
>  <compound>
CCc1ccc(C2Oc3cc(-c4cnc([C@@H]5CCCN5C(=O)[C@@H](NC(=O)OC)C(C)C)[nH]4)cc(F)c3-c3cc4cc(-c5cnc([C@@H]6CCCN6C(=O)C(NC(=O)OC)C6CCOC(C)(C)C6)[nH]5)ccc4n32)s1 (single isomer, unassigned) [Compound 152]

>  <experimental-value>
9.32

$$$$
>  <compound>
CCOC(C)[C@H](NC(=O)OC)C(=O)N1CCC[C@H]1c1ncc(-c2cc(F)c3c(c2)OC(c2cc(C)c(C)s2)n2c-3cc3cc(-c4cnc([C@@H]5CCCN5C(=O)[C@@H](NC(=O)OC)C(C)C)[nH]4)ccc32)[nH]1 (single isomer, unassigned) [Compound 79]

>  <experimental-value>
9.85

$$$$
>  <compound>
COC(=O)N[C@@H](Cc1ccccc1)C(=O)N1CCC[C@H]1c1ncc(-c2ccc3c(c2)OC(c2ccc(-c4ccc(NC(=O)CCCC[C@@H]5SC[C@@H]6NC(=O)N[C@@H]65)cc4)s2)n2c-3cc3cc(-c4cnc([C@@H]5CCCN5C(=O)[C@H](Cc5ccccc5)NC(=O)OC)[nH]4)ccc32)[nH]1 (single isomer, unassigned) [Compound 384]

>  <experimental-value>
9.03

$$$$
>  <compound>
COC(=O)N[C@H](C(=O)N1CCC[C@H]1c1ncc(-c2cc(F)c3c(c2)OC(c2cc(F)c(C4CC4)s2)n2c-3cc3cc(-c4cnc([C@@H]5CCCN5C(=O)[C@@H](NC(=O)OC)C(C)C)[nH]4)ccc32)[nH]1)C(C)C (single isomer, unassigned) [Compound 72]

>  <experimental-value>
11.00

$$$$
>  <compound>
COC(=O)NC(C(=O)N1CCC[C@H]1c1ncc(-c2cc(F)c3c(c2)OC(c2ccc(C4CC4)s2)n2c-3cc3cc(-c4cnc([C@@H]5CCCN5C(=O)[C@@H](NC(=O)OC)C(C)C)[nH]4)ccc32)[nH]1)C1CCOC(C)(C)C1 (single isomer, unassigned) [Compound 216]

>  <experimental-value>
9.74

$$$$
>  <compound>
COC(=O)NC(C(=O)N1[C@@H]2C[C@@H]2C[C@H]1c1ncc(-c2ccc3c(c2)cc2n3C(c3ccc(C4CC4)s3)Oc3cc(-c4cnc([C@@H]5CCCN5C(=O)[C@@H](NC(=O)OC)C(C)C)[nH]4)cc(F)c3-2)[nH]1)C1C[C@@H](C)O[C@@H](C)C1 (single isomer, unassigned) [Compound 273]

>  <experimental-value>
9.74

$$$$
>  <compound>
COC(=O)NC(C(=O)N1CCC[C@H]1c1ncc(-c2cc(F)c3c(c2)OC(c2ccc(C4CC4)s2)n2c-3cc3cc(-c4cnc([C@@H]5CCCN5C(=O)[C@@H](NC(=O)OC)C5CCOCC5)[nH]4)ccc32)[nH]1)C(C)(C)F (single isomer, unassigned) [Compound 171]

>  <experimental-value>
8.85

$$$$

The values you see were collected from patent US20160257697A1.
